# Measurement Target: Protein farnesyltransferase (Homo sapiens, UniProt P49354+P49356)
# Experiment Description: Inhibition of Protein farnesyltransferase in an enzyme assay with His6-H-Ras-CVLS
Attribute Measured: IC50 (µM)

# example entries with known answers
Input: Item CCCc1c[nH]c2c(Cl)cc3c(c12)[C@@H](C1CCN(C(=O)Cc2cc[n+]([O-])cc2)CC1)c1ncccc1CC3 (stereo in doubt; (+)-10b) has what recorded IC50?
Output: 0.065

Input: And what about the compound O=C(Cc1cc[n+]([O-])cc1)N1CCC(C2c3ncccc3CCc3cc(Cl)c4[nH]ccc4c32)CC1 (single isomer, unassigned; (+)) ?
Output: 0.042

Input: Then O=C(Cc1cc[n+]([O-])cc1)N1CCC([C@H]2c3ncccc3CCc3cc(Cl)cc(Br)c32)CC1 ?
Output: 0.019

I: O=C(Cc1cc[n+]([O-])cc1)N1CCC([C@@H]2c3ccc(Cl)cc3CCc3cc(Br)cnc32)CC1
II: Cc1c[nH]c2c(Cl)cc3c(c12)[C@@H](C1CCN(C(=O)Cc2cc[n+]([O-])cc2)CC1)c1ncc(Br)cc1CC3
Input: // pick min by IC50: I , II Selection: enter the item's label.
Output: II

###

# Measurement Target: Protein farnesyltransferase (Homo sapiens, UniProt P49354+P49356)
# Experiment Description: Inhibition of Protein farnesyltransferase in an enzyme assay with His6-H-Ras-CVLS
Attribute Measured: IC50 (µM)

a: Cc1c[nH]c2c(Cl)cc3c(c12)[C@@H](C1CCN(C(=O)Cc2cc[n+]([O-])cc2)CC1)c1ncccc1CC3 (stereo in doubt; (+)-10a)
b: Cc1c[nH]c2c(Cl)cc3c(c12)[C@@H](C1CCN(C(=O)Cc2cc[n+]([O-])cc2)CC1)c1ncccc1CC3 (stereo in doubt; (-)-10a)
c: CCCCc1c[nH]c2c(Cl)cc3c(c12)[C@@H](C1CCN(C(=O)Cc2cc[n+]([O-])cc2)CC1)c1ncccc1CC3 (stereo in doubt; (+)-10c)
Input: hey, can you rank those molecules up there by IC50? biggest number first please Order the labels as requested and give them as your answer.
Output: c, b, a
(c: 0.069 µM, b: 0.028 µM, a: 0.0074 µM)
